// data source = the C3SDB collision cross section collection

- experimental_parameters: [M+H]+; instrument: TW; calibrated with polyalanine and drug standards
Documented collision cross section (N2) across a set of compounds

compound: O=C(O[C@@H]1Cc2c(O)cc(O)cc2O[C@@H]1c1cc(=O)c(O)c2c(O)c(O)cc([C@H]3Oc4cc(O)cc(O)c4C[C@H]3O)c2c1)c1cc(O)c(O)c(O)c1
collision cross section (N2) (Å²): 245.7
--
compound: COC(=O)[C@H]1[C@H]2C[C@H]3c4[nH]c5ccccc5c4CCN3C[C@@H]2CC[C@@H]1O
collision cross section (N2) (Å²): 186
--
compound: CCOc1nc2cccc(C(=O)OC(C)OC(=O)OC3CCCCC3)c2n1Cc1ccc(-c2ccccc2-c2nn[nH]n2)cc1 (stereo not drawn)
collision cross section (N2) (Å²): 241.5
